Tested on: HeLa
Test: Photocytotoxicity against human HeLa cells assessed as growth inhibition preincubated for 24 hrs followed by irradiation with light at 23 to 24 uW/cm'2 for 30 mins measured after 24 hrs by SRB assay
Type: functional
Details: light or radiation study
observation-type: GI50 (nM)
The figure you give is taken to be in nM; do not add the unit.

Documented GI50 of CCN1/C(=C/C2=C(N)C(=C/c3sc4ccccc4[n+]3CC)/C2=O)Sc2ccccc21 : 288

Documented GI50 of CCN1/C(=C/C2=C(N(C)CCO)C(=C/c3sc4ccccc4[n+]3CC)/C2=O)Sc2ccccc21 : 273

Documented GI50 of CCN1/C(=C/C2=C(NC)C(=C/c3sc4ccccc4[n+]3CC)/C2=O)Sc2ccccc21 : 71

Documented GI50 of CCN1/C(=C/C2=C(N(CCO)CCO)C(=C/c3sc4ccccc4[n+]3CC)/C2=O)Sc2ccccc21 : 88

Documented GI50 of CCN1/C(=C/C2=C(NCCO)C(=C/c3sc4ccccc4[n+]3CC)/C2=O)Sc2ccccc21 : 97

* * *

Assay: Dark toxicity against human MCF7 cells assessed as growth inhibition after 24 hrs by SRB assay
Assay type: cell-based
observation-type: GI50 at 24 h (µM)
The figure you give is taken to be in µM; do not add the unit.

Documented GI50 at 24 h of CCN1/C(=C/C2=C(N(CCO)CCO)C(=C/c3sc4ccccc4[n+]3CC)/C2=O)Sc2ccccc21 : 5.34

Documented GI50 at 24 h of CCN1/C(=C/C2=C(NCCO)C(=C/c3sc4ccccc4[n+]3CC)/C2=O)Sc2ccccc21 : 7.36

Documented GI50 at 24 h of CCN1/C(=C/C2=C(N(C)CCO)C(=C/c3sc4ccccc4[n+]3CC)/C2=O)Sc2ccccc21 : 0.737

Documented GI50 at 24 h of CCN1/C(=C/C2=C(NC)C(=C/c3sc4ccccc4[n+]3CC)/C2=O)Sc2ccccc21 : 0.576

* * *

Answer each item with its documented GI50.
Test system: NCI-H460
Assay: Photocytotoxicity against human NCI-H460 cells assessed as growth inhibition preincubated for 24 hrs followed by irradiation with light at 23 to 24 uW/cm'2 for 30 mins measured after 24 hrs by SRB assay
Assay type: functional
Settings: NCI-H460, light or radiation study
The figure you give is taken to be in nM; do not add the unit.

GI50 for NCI-H460 with input CCN1/C(=C/C2=C(N(CCO)CCO)C(=C/c3sc4ccccc4[n+]3CC)/C2=O)Sc2ccccc21 equals 404

GI50 for NCI-H460 with input CCN1/C(=C/C2=C(NCCO)C(=C/c3sc4ccccc4[n+]3CC)/C2=O)Sc2ccccc21 equals 440

GI50 for NCI-H460 with input CCN1/C(=C/C2=C(N(C)CCO)C(=C/c3sc4ccccc4[n+]3CC)/C2=O)Sc2ccccc21 equals 455

GI50 for NCI-H460 with input CCN1/C(=C/C2=C(N)C(=C/c3sc4ccccc4[n+]3CC)/C2=O)Sc2ccccc21 equals 8350

GI50 for NCI-H460 with input CCN1/C(=C/C2=C(NC)C(=C/c3sc4ccccc4[n+]3CC)/C2=O)Sc2ccccc21 equals 171

* * *

Assay: Dark toxicity against human HeLa cells assessed as growth inhibition after 24 hrs by SRB assay
Assay type: cell-based
Answer each item with its documented GI50 at 24 h.
The figure you give is taken to be in nM; do not add the unit.

Documented GI50 at 24 h of CCN1/C(=C/C2=C(N(C)CCO)C(=C/c3sc4ccccc4[n+]3CC)/C2=O)Sc2ccccc21 : 2640

Documented GI50 at 24 h of CCN1/C(=C/C2=C(NC)C(=C/c3sc4ccccc4[n+]3CC)/C2=O)Sc2ccccc21 : 2220

* * *

Assay: Dark toxicity against human HeLa cells assessed as growth inhibition after 24 hrs by SRB assay
Assay type: cell-based
observation-type: GI50 at 24 h

Documented GI50 at 24 h of CCN1/C(=C/C2=C(N)C(=C/c3sc4ccccc4[n+]3CC)/C2=O)Sc2ccccc21 : > 10 µM

Documented GI50 at 24 h of CCN1/C(=C/C2=C(N(CCO)CCO)C(=C/c3sc4ccccc4[n+]3CC)/C2=O)Sc2ccccc21 : > 10 µM

Documented GI50 at 24 h of CCN1/C(=C/C2=C(NCCO)C(=C/c3sc4ccccc4[n+]3CC)/C2=O)Sc2ccccc21 : > 10 µM

Each recorded value in this set is attributed to ChEMBL document CHEMBL4043173.
